tested on: human T-lymphocyte (CEM) cells; assay: Cytostatic activity, CEM cell proliferation; type: cell-based; conditions: mean ± SD of three experiments; highest concentration tested 250 µM; 3 days; read-out: Toxicity (IC50) CEM
OBSERVABLE: IC50

# annotated cases, reported IC50 shown
- MOLECULE: "CN[C@H](CC(C)C)C(=O)N[C@H]1C(=O)N[C@@H](CC(N)=O)C(=O)N[C@H]2C(=O)N[C@H]3C(=O)N[C@H](C(=O)N[C@H](C(=O)NCC(=O)Nc4ccc([N+](=O)[O-])cc4)c4cc(O)cc(O)c4-c4cc3ccc4O)[C@H](O)c3ccc(c(Cl)c3)Oc3cc2cc(c3O[C@@H]2O[C@H](CO)[C@@H](O)[C@H](O)[C@H]2O[C@H]2C[C@](C)(N)[C@H](O)[C@H](C)O2)Oc2ccc(cc2Cl)[C@H]1O"
  ASSAYED TARGET: "human T-lymphocyte (CEM) cells"
  IC50: "165 µM"
- MOLECULE: "CN[C@H](CC(C)C)C(=O)N[C@H]1C(=O)N[C@@H](CC(N)=O)C(=O)N[C@H]2C(=O)N[C@H]3C(=O)N[C@H](C(=O)N[C@H](C(=O)NCC(=O)Nc4ccc(C(F)(F)F)cc4)c4cc(O)cc(O)c4-c4cc3ccc4O)[C@H](O)c3ccc(c(Cl)c3)Oc3cc2cc(c3O[C@@H]2O[C@H](CO)[C@@H](O)[C@H](O)[C@H]2O[C@H]2C[C@](C)(N)[C@H](O)[C@H](C)O2)Oc2ccc(cc2Cl)[C@H]1O"
  ASSAYED TARGET: "human T-lymphocyte (CEM) cells"
  IC50: "> 250 µM"

Problem: Identify IC50 associated with the molecule CNC(CC(C)C)C(=O)NC1C(=O)NC(CC(N)=O)C(=O)NC2C(=O)NC3C(=O)NC(C(=O)NC(C(=O)NCCCNC(=O)c4cc5cc(F)ccc5[nH]4)c4cc(O)cc(O)c4-c4cc3ccc4O)C(O)c3ccc(c(Cl)c3)Oc3cc2cc(c3OC2OC(CO)C(O)C(O)C2OC2CC(C)(N)C(O)C(C)O2)Oc2ccc(cc2Cl)C1O (stereo not drawn)
Result: > 250 µM

----------
system: MRSA KS1; experiment: MIC, broth microdilution, MRSA KS1; assay type: cell-based, Staphylococcus aureus; conditions: MRSA KS1; ratio of MIC of vancomycin and MIC of analogue
OBSERVABLE: MIC-fold improvement vs. vancomycin
Numbers only.

- COMPOUND: "C#Cc1ccc2cc(C(=O)NCCCNC(=O)[C@H]3NC(=O)[C@H]4NC(=O)[C@H](NC(=O)[C@@H]5NC(=O)[C@H](CC(N)=O)NC(=O)[C@H](NC(=O)[C@@H](CC(C)C)NC)[C@H](O)c6ccc(c(Cl)c6)Oc6cc5cc(c6O[C@@H]5O[C@H](CO)[C@@H](O)[C@H](O)[C@H]5O[C@H]5C[C@](C)(N)[C@H](O)[C@H](C)O5)Oc5ccc(cc5Cl)[C@H]4O)c4ccc(O)c(c4)-c4c(O)cc(O)cc43)ccc2c1"
  MIC-fold improvement vs. vancomycin: 4
- COMPOUND: "CNC(CC(C)C)C(=O)NC1C(=O)NC(CC(N)=O)C(=O)NC2C(=O)NC3C(=O)NC(C(=O)NC(C(=O)NCC(=O)Nc4ccc(-c5cn(-c6ccc(OC)cc6)nn5)cc4)c4cc(O)cc(O)c4-c4cc3ccc4O)C(O)c3ccc(c(Cl)c3)Oc3cc2cc(c3OC2OC(CO)C(O)C(O)C2OC2CC(C)(N)C(O)C(C)O2)Oc2ccc(cc2Cl)C1O (stereo not shown)"
  MIC-fold improvement vs. vancomycin: 0.5
- COMPOUND: "CNC(CC(C)C)C(=O)NC1C(=O)NC(CC(N)=O)C(=O)NC2C(=O)NC3C(=O)NC(C(=O)NC(C(=O)NCCNC(=O)C=Cc4ccccc4)c4cc(O)cc(O)c4-c4cc3ccc4O)C(O)c3ccc(c(Cl)c3)Oc3cc2cc(c3OC2OC(CO)C(O)C(O)C2OC2CC(C)(N)C(O)C(C)O2)Oc2ccc(cc2Cl)C1O (stereo not shown)"
  MIC-fold improvement vs. vancomycin: 1

Hi team, please reply with MIC-fold improvement vs. vancomycin for each item in this list.
1. CN[C@H](CC(C)C)C(=O)N[C@H]1C(=O)N[C@@H](CC(N)=O)C(=O)N[C@H]2C(=O)N[C@H]3C(=O)N[C@H](C(=O)N[C@H](C(=O)NCC(=O)Nc4ccc(F)cc4F)c4cc(O)cc(O)c4-c4cc3ccc4O)[C@H](O)c3ccc(c(Cl)c3)Oc3cc2cc(c3O[C@@H]2O[C@H](CO)[C@@H](O)[C@H](O)[C@H]2O[C@H]2C[C@](C)(N)[C@H](O)[C@H](C)O2)Oc2ccc(cc2Cl)[C@H]1O
2. CN[C@H](CC(C)C)C(=O)N[C@H]1C(=O)N[C@@H](CC(N)=O)C(=O)N[C@H]2C(=O)N[C@H]3C(=O)N[C@H](C(=O)N[C@H](C(=O)NCC(=O)Nc4cc(OC)cc(OC)c4)c4cc(O)cc(O)c4-c4cc3ccc4O)[C@H](O)c3ccc(c(Cl)c3)Oc3cc2cc(c3O[C@@H]2O[C@H](CO)[C@@H](O)[C@H](O)[C@H]2O[C@H]2C[C@](C)(N)[C@H](O)[C@H](C)O2)Oc2ccc(cc2Cl)[C@H]1O
3. CN[C@H](CC(C)C)C(=O)N[C@H]1C(=O)N[C@@H](CC(N)=O)C(=O)N[C@H]2C(=O)N[C@H]3C(=O)N[C@H](C(=O)N[C@H](C(=O)NCCNC(=O)/C=C/c4cccc(OC)c4)c4cc(O)cc(O)c4-c4cc3ccc4O)[C@H](O)c3ccc(c(Cl)c3)Oc3cc2cc(c3O[C@@H]2O[C@H](CO)[C@@H](O)[C@H](O)[C@H]2O[C@H]2C[C@](C)(N)[C@H](O)[C@H](C)O2)Oc2ccc(cc2Cl)[C@H]1O
4. CN[C@H](CC(C)C)C(=O)N[C@H]1C(=O)N[C@@H](CC(N)=O)C(=O)N[C@H]2C(=O)N[C@H]3C(=O)N[C@H](C(=O)N[C@H](C(=O)NCC(=O)Nc4ccc(Oc5ccccc5)cc4)c4cc(O)cc(O)c4-c4cc3ccc4O)[C@H](O)c3ccc(c(Cl)c3)Oc3cc2cc(c3O[C@@H]2O[C@H](CO)[C@@H](O)[C@H](O)[C@H]2O[C@H]2C[C@](C)(N)[C@H](O)[C@H](C)O2)Oc2ccc(cc2Cl)[C@H]1O
5. CNC(CC(C)C)C(=O)NC1C(=O)NC(CC(N)=O)C(=O)NC2C(=O)NC3C(=O)NC(C(=O)NC(C(=O)NCC(=O)NC4c5ccccc5-c5ccccc54)c4cc(O)cc(O)c4-c4cc3ccc4O)C(O)c3ccc(c(Cl)c3)Oc3cc2cc(c3OC2OC(CO)C(O)C(O)C2OC2CC(C)(N)C(O)C(C)O2)Oc2ccc(cc2Cl)C1O (stereo not shown)
6. CN[C@H](CC(C)C)C(=O)N[C@H]1C(=O)N[C@@H](CC(N)=O)C(=O)N[C@H]2C(=O)N[C@H]3C(=O)N[C@H](C(=O)N[C@H](C(=O)NCCNC(=O)/C=C/c4ccc(NS(=O)(=O)c5ccccc5)cc4)c4cc(O)cc(O)c4-c4cc3ccc4O)[C@H](O)c3ccc(c(Cl)c3)Oc3cc2cc(c3O[C@@H]2O[C@H](CO)[C@@H](O)[C@H](O)[C@H]2O[C@H]2C[C@](C)(N)[C@H](O)[C@H](C)O2)Oc2ccc(cc2Cl)[C@H]1O

Result:
1: 1; 2: 1; 3: 1; 4: 4; 5: 8; 6: 2

Problem: Fill in MIC-fold improvement vs. vancomycin for record CN[C@H](CC(C)C)C(=O)N[C@H]1C(=O)N[C@@H](CC(N)=O)C(=O)N[C@H]2C(=O)N[C@H]3C(=O)N[C@H](C(=O)N[C@H](C(=O)NCC(=O)Nc4ccc(C(F)(F)F)cc4)c4cc(O)cc(O)c4-c4cc3ccc4O)[C@H](O)c3ccc(c(Cl)c3)Oc3cc2cc(c3O[C@@H]2O[C@H](CO)[C@@H](O)[C@H](O)[C@H]2O[C@H]2C[C@](C)(N)[C@H](O)[C@H](C)O2)Oc2ccc(cc2Cl)[C@H]1O
Result: 2
